All values here come from PubChem BioAssay (NCI).

system: HS 578T breast; test: NCI-60 one-dose screen, 48 h (100 = growth as untreated, 0 = no growth, -100 = all killed); conditions: 10 µM unless noted
This is part of a sample that, as a whole, favours compounds with a hit. Of some 83,000 tested, about 20% had one in any assay.
Entries and their measured growth follow.
The figure you give is taken to be in %; do not add the unit.

C[C@H]1C(=O)N2c3ccccc3[C@@]3(O)C[C@@H](n4cnc5ccccc5c4=O)C(=O)N1[C@@H]23; 32.9
COc1ccc(CCN2C(=O)CCC3=C2CCCC3=O)cc1OC; 94.6
Cc1ccc(/C=C/C(=O)c2ccc(F)cc2)s1; 102

Reported growth, compound `O=C1C=CC(=O)N1c1ccccn1` : ____ 97.4

Same again, this time with `COc1ccc(-c2cc(-c3cccnc3)nc(S(=O)(=O)CC(=O)Nc3ccc(C)cc3)c2C#N)cc1OC` 81.9

What do you have for `COC(=O)C1(NC(=O)CNC(=O)OCc2ccccc2)CCCC1` ? 131

====

tested on: HCT-15 colon; experiment: NCI-60 one-dose screen, 48 h; details: 10 µM unless noted
About 83,000 compounds went through this panel and 20% of them were active in at least one assay; those are over-represented in the sample as a whole. Active and inactive are the calls of the source. The calls were made as follows: active = growth percent below 10; inactive = the rest.
Tick one outcome: 1 (yes) = active, 0 (no) = inactive

Worked examples, 6 molecules total:
CCCc1n(Cc2ccc3ccccc3c2)cc[n+]1Cc1ccc2ccccc2c1; 0 (no)
CCOC(=O)CCC(=O)O[C@H]1[C@H](O[C@@H]2[C@@H](C)[C@H](O[C@H]3C[C@@](C)(OC)[C@@H](O)[C@H](C)O3)[C@@H](C)C(=O)O[C@H](CC)[C@@](C)(O)[C@H](O)[C@@H](C)C(=O)[C@H](C)C[C@@]2(C)O)O[C@H](C)C[C@@H]1N(C)C; 0 (no)
CC1C(=O)NC2=Nc3ccccc3C(=O)NN21 (centres undefined); 0 (no)
O[N+]1=CC=CCC1=S.On1ccccc1=S.[Zn]; 1 (yes)
COc1cc(OC)c2c(c1Cl)O[C@]1(C2=O)C(OCc2ccccc2)=CC(=O)C[C@H]1C; 0 (no)
N#Cc1c(-c2ccccc2)cc(-c2ccccc2)n(CCCCC(=O)O)c1=O; 0 (no)

// return assay outcome for `C[C@]12CCC(=O)C=C1CC[C@H]1[C@@H]3C[C@@H](O)[C@](O)(C(=O)CO)[C@@]3(C)C[C@H](O)[C@@]12F` 0 (no)

Same lookup for `COc1cccc(N2CCN(c3cccc(C)n3)CC2)c1` , please. 0 (no)

Similarly, `CC(=O)/C(=C/c1ccc(Cl)cc1)C(=O)c1ccccc1` ? 0 (no)

Also check `O=C(/C=C/c1cccc(O)c1)c1cccc(-n2cc(-c3ccccc3)[nH]c2=O)c1` 1 (yes)

What about this molecule? `Cc1[nH]c(=O)[nH]c(=O)c1CCSSCCc1c(C)[nH]c(=O)[nH]c1=O` 0 (no)

// query: `C/C(=C\CCc1ccoc1)CC/C=C(\C)CCCN1CCOCC1` 0 (no)

Next: `Cc1csc(C#Cc2cncc(O)c2)n1` 0 (no)

// query: Fc1ccccc1C1c2ccccc2-c2nccn21 (centres undefined) 0 (no)

====

tested on: SF-295 CNS; experiment: NCI-60 one-dose screen, 48 h; settings: 10 µM unless noted
The panel holds about 83,000 compounds, 20% with a hit somewhere; the sample as a whole holds those more often. Activity calls are given as the source filed them. How the source made its calls: active means growth percent below 10; inactive means the rest.
Parameter call: string, one of true for active, false for inactive

Name the outcome recorded for `C[C@H](C(=O)N[C@@H](Cc1ccc(-c2ccccc2)cc1)C(=O)NC1CC(C)(C)N(C)C(C)(C)C1)c1ccc(-c2ccccc2)c(F)c1` in the assay. true

====

test system: RXF 393 renal; experiment: NCI-60 one-dose screen, 48 h; conditions: 10 µM unless noted
This is part of a sample that, as a whole, favours compounds with a hit. Of some 83,000 tested, about 20% had one in any assay. The source made the active and inactive calls. The calls were made as follows: active = growth percent below 10; inactive = the rest.
Returns: one label drawn from 1 for active, 0 for inactive

CCc1nn2c(-c3ccc(Cl)cc3C)c(-c3cc(OC)c(OC)c(OC)c3)nc2s1; 0
Oc1c(Cl)cc(Cl)c(Cl)c1Cc1c(O)c(Cl)cc(Cl)c1Cl; 0
CCOc1cc(/C=C/C(=O)CC(=O)/C=C/c2ccc(OC(=O)CNc3nc4ccc(OC)cc4s3)c(OCC)c2)ccc1OC(=O)CNc1nc2ccc(OC)cc2s1; 1

For CC(=O)N1N=C(c2ccc(C(F)(F)F)cc2)CC1c1ccc2c(c1)OCO2 (centres undefined) , which call appears in the assay record? 0

// query: `COC(=O)[C@H](CCCCNC(=O)OCc1ccccc1)NC(=O)[C@@H](NC(=O)Nc1cc(C(F)(F)F)cc(C(F)(F)F)c1)C(C)C` 1

====

test system: IGROV1 ovarian; experiment: NCI-60 one-dose screen, 48 h; conditions: 10 µM unless noted
About 83,000 compounds went through this panel and 20% of them were active in at least one assay; those are over-represented in the sample as a whole. The source made the active and inactive calls. How the source made its calls: active means growth percent below 10; inactive means the rest.
Result category, one only: yes (1) (active), no (0) (inactive)

O=C(Nc1ccccc1OC(=O)c1ccccc1)c1ccccc1; no (0)
O=C(O)c1ccc2cccnc2c1O; yes (1)

# fetch the recorded call for `Oc1c(N=Nc2nn[nH]n2)ccc2ccccc12` here no (0)

Cool, now C[C@H]1O[C@@H](O[C@H]2[C@@H](O)C[C@H](O[C@H]3[C@@H](O)C[C@H](O[C@H]4CC[C@]5(C)C6CC[C@]7(C)[C@@H](C8=CC(=O)OC8)CC[C@]7(O)C6CC[C@@H]5C4)O[C@@H]3C)O[C@@H]2C)C[C@H](O)[C@@H]1O (some centres not stated) yes (1)

# repeat for `CCc1nn2c(-c3ccc(Cl)cc3C)c(-c3cc(OC)c(OC)c(OC)c3)nc2s1` no (0)

Now the compound `O=CNc1ccc2c(c1)Cc1cc([N+](=O)[O-])ccc1-2` no (0)

How about this compound: `COc1cc(/C=N/NC(=O)c2ccc(C(F)(F)F)nc2Nc2ccc(Cl)cc2C)ccc1O` no (0)

What about `NC(=O)c1cc(Br)cc(Br)c1NS(=O)(=O)c1ccccc1` ? no (0)

Would you mind doing `CCCc1n(Cc2ccc3ccccc3c2)cc[n+]1Cc1ccc2ccccc2c1` as well? yes (1)

# iterate: `OCCCc1n(Cc2ccc3ccccc3c2)c2ccccc2[n+]1Cc1ccc2ccccc2c1` yes (1)

Same thing, different compound: `Cc1[nH]c(=O)[nH]c(=O)c1CCSSCCc1c(C)[nH]c(=O)[nH]c1=O` no (0)

====

system: K-562 leukemia; test: NCI-60 one-dose screen, 48 h; conditions: 10 µM unless noted
Compounds without any hit were thinned out: in the full panel of roughly 83,000, 20% have a hit. Activity calls are given as the source filed them. Rule for the calls: active = growth percent below 10; inactive = the rest.
Tick one outcome: active, inactive

Past entries and their recorded results:
COc1ccc(NC(=O)c2ccc(-c3ccccc3)cc2)c(C(N)=O)c1; inactive
CC[C@H]1CN2CCc3cc(OC)c(OC)cc3C2C[C@@H]1CC1NCCc2cc(OC)c(OC)cc21 (some centres undefined); active
Clc1ccc(C2=NN(c3ccc(Cl)cc3)C(c3cccc(Nc4ccnc5cc(Cl)ccc45)c3)C2)cc1 (centres undefined); inactive

Can you look up the reported call for `COc1ccc2ncccc2c1Cc1c(OC)ccc2ncccc12` for me? inactive

Also need `CC(=O)Nc1ccc(C(=O)COc2ccc(/C=C3\CCc4ccccc4C3=O)cc2)cc1` , thanks. inactive

Check `COc1cc(C(=O)c2cc3c(cc2C)OCO3)cc(OC)c1OC` too. inactive

Also `CCOc1cc(CCNS(=O)(=O)c2ccc(C)cc2)c(C(C)=O)cc1OCC` , if possible. inactive

Check COc1cc2c(cc1OC)C(CC1(O)CCCCC1)N(S(=O)(=O)c1ccc(C)cc1)CC2 (centres undefined) too. inactive

Now give it for `N#Cc1ccccc1C#Cc1ccccc1C#Cc1ccc(OCCCCCCOc2ccc(C#Cc3ccccc3C#Cc3ccccc3C#N)cc2)cc1` too. inactive

====

test system: NCI-H226 lung; assay: NCI-60 one-dose screen, 48 h; conditions: 10 µM unless noted
About 83,000 compounds went through this panel and 20% of them were active in at least one assay; those are over-represented in the sample as a whole. Activity calls are given as the source filed them. Rule for the calls: active = growth percent below 10; inactive = the rest.
API: response.call in yes (1) (active), no (0) (inactive)

Solved entries (count: 8):
NS(=O)(=O)c1ccc(N2CC(c3nc4ccccc4[nH]3)CC2=O)cc1 (stereo not given); no (0)
Clc1ccc2c(c1)C(Br)c1cc(Cl)cc(Cl)c1-2 (stereo not given); no (0)
COc1ccc(/C=C2\CCc3ccccc3C2=O)cc1; no (0)
Cn1ccnc1C(=O)/C=C/c1ccc(C(=O)Nc2nc3ccccc3[nH]2)cc1; no (0)
CCOc1cc(/C=C/C(=O)CC(=O)/C=C/c2ccc(OC(=O)CNCCN(CC)CC)c(OCC)c2)ccc1OC(=O)CNCCN(CC)CC; yes (1)
CCOC1Oc2ccccc2C(=O)/C1=N/c1nccs1 (stereo not given); no (0)
Clc1ccc2[nH]cc(-c3cncn3CCc3ccccc3)c2c1; no (0)
O=C(Nc1nc2ccc(OC(F)(F)F)cc2s1)c1ccc(F)cc1; no (0)

Per the records of this test, what outcome belongs to `COc1ccc(N2CCN(CC(=O)N3CCN(c4nnc(-c5ccc(Cl)cc5)c(-c5ccc(Cl)cc5)n4)CC3)CC2)cc1` ? no (0)

Now the same for `O=C(NCCNC(=O)Oc1cccc2ccccc12)Oc1cccc2ccccc12` no (0)
